- Test system: Plasmodium berghei
- Test Description: Screen against P. berghei liver stage (PbLuc), transformed with Luciferase, at 10uM
- Format: functional, HepG2
- Condition Set: tested at 10 uM
Out of some 69,000 compounds screened, about 8,600 (12%) showed an effect of 50% or more. This is one part of a sample in which strong results are shown more often than they occur.

{"Compound": "CCc1nn(C)c(Cl)c1CN1C[C@@H](NC(=O)N(C)C)[C@H](C(C)C)C1", "Value Unit": "%", "INHIBITION": 59.7}
{"Compound": "Cc1cnn(CC2CCCN2C(=O)c2cc(C)nc3[nH]nc(C)c23)c1 (stereo not drawn)", "Value Unit": "%", "INHIBITION": -37.7}
{"Compound": "Cc1cnc(NCCCN2CCCCC2CO)nc1 (stereo not drawn)", "Value Unit": "%", "INHIBITION": 20.8}
{"Compound": "Cc1ccc(N2C[C@H](C)[C@]3(CCN(c4cccnc4)C3=O)C2)nn1", "Value Unit": "%", "INHIBITION": 38.5}
{"Compound": "O=C(CN1CCCC(Cn2cncn2)C1)Nc1cccnc1 (stereo not drawn)", "Value Unit": "%", "INHIBITION": -43.9}
{"Compound": "O=C(Nc1cccnc1)C1CCCN(c2cc(-n3cccn3)ncn2)C1 (stereo not drawn)", "Value Unit": "%", "INHIBITION": 50.2}
{"Compound": "CN(CC(=O)Nc1cc(-c2cc(Cl)cc(Cl)c2)[nH]n1)S(C)(=O)=O", "Value Unit": "%", "INHIBITION": -51.9}
{"Compound": "Cc1nc(C2CCN(C(=O)c3cscn3)CC2)c2sccn12", "Value Unit": "%", "INHIBITION": 17.4}
{"Compound": "CCS(=O)(=O)N1CCC(OC)c2ccccc2N(CC(=O)NC)C(=O)C1 (stereo not drawn)", "Value Unit": "%", "INHIBITION": 43.4}
{"Compound": "Cc1ccc(NC2COC3(CCN(Cc4ccn(C)n4)CC3)C2)nn1 (stereo not drawn)", "Value Unit": "%", "INHIBITION": -4.99}
{"Compound": "CCc1nnc2n1CCN(Cc1cc(Cl)c3c(c1)OCCO3)C2", "Value Unit": "%", "INHIBITION": 10.235}
{"Compound": "Cc1cc(F)c(S(=O)(=O)NCC(C)(C)N)cc1F", "Value Unit": "%", "INHIBITION": 37.6}
{"Compound": "O=c1cc(CSc2nnc[nH]2)nc2sc3c(n12)CCCC3", "Value Unit": "%", "INHIBITION": 16.5}
{"Compound": "CC(C)CC(C)(CNC(=O)c1cnccn1)NC(=O)c1cnccn1 (stereo not drawn)", "Value Unit": "%", "INHIBITION": 25.4}
{"Compound": "CCc1nn(C)c(Cl)c1CN1C[C@H](NC(=O)CCO)[C@@H](C(C)C)C1", "Value Unit": "%", "INHIBITION": 14.8}
{"Compound": "COCCN(Cc1ccco1)Cc1nc(-c2ccc(C)c(F)c2)no1", "Value Unit": "%", "INHIBITION": -16.7}
{"Compound": "CSc1ccc(-c2noc(CN(CC(C)C)CC(C)C)n2)cc1", "Value Unit": "%", "INHIBITION": 65.8}
{"Compound": "O=C(Nc1ccccc1)C1CCCN(c2cc(-n3cncn3)ncn2)C1 (stereo not drawn)", "Value Unit": "%", "INHIBITION": 50.2}
{"Compound": "CCOC(=O)CN1C(=O)CN(S(C)(=O)=O)CCC(OC)c2ccccc21 (stereo not drawn)", "Value Unit": "%", "INHIBITION": 54.8}
{"Compound": "CCC(CC)(CNC(=O)OC(C)(C)C)NC(=O)c1cnccn1", "Value Unit": "%", "INHIBITION": 67.4}
{"Compound": "O=C(Nc1cccnc1)C1CCN(c2cc(-n3ccnc3)ncn2)CC1", "Value Unit": "%", "INHIBITION": 31.3}
{"Compound": "CSc1ccc(-c2noc(CN(Cc3ccccc3)C(C)C)n2)cc1", "Value Unit": "%", "INHIBITION": 46.1}
{"Compound": "CC(C)c1noc(CN2CCN(CCO)CC2)n1", "Value Unit": "%", "INHIBITION": -10.875}

* * *

Let's look at some compounds and their measured INHIBITION.
- Tested on: Plasmodium berghei
- Test Description: Screen against P. berghei liver stage (PbLuc), transformed with Luciferase, at 10uM
- Type: functional, HepG2
- Condition Set: tested at 10 uM
Out of some 69,000 compounds screened, about 8,600 (12%) showed an effect of 50% or more. Many of the other results were omitted from the sample, so strong results are more common in it than they were.
Readout Label: INHIBITION (%)

{"Compound": "O=C(CC1CC1)N1Cc2nccn2CC(COc2cccnc2)C1 (stereo not given)", "Target Or System": "Plasmodium berghei", "Value Unit": "%", "Observed Result": 13.5}
{"Compound": "CCn1nc(C)c2nnn(CC(=O)Nc3cccc(F)c3)c(=O)c21", "Target Or System": "Plasmodium berghei", "Value Unit": "%", "Observed Result": 15.9}
{"Compound": "CC(=O)N1CCOCC2(CN(Cc3ccc(C)o3)CCO2)C1 (stereo not given)", "Target Or System": "Plasmodium berghei", "Value Unit": "%", "Observed Result": 26.7}
{"Compound": "CCN1CC2(CC1=O)CN(C(=O)NC(C)C)CCN(S(C)(=O)=O)C2 (stereo not given)", "Target Or System": "Plasmodium berghei", "Value Unit": "%", "Observed Result": 21.6}
{"Compound": "CN(Cc1cccc(-n2cccn2)c1)C(=O)c1cccc(N(C)C)c1", "Target Or System": "Plasmodium berghei", "Value Unit": "%", "Observed Result": 22.1}
{"Compound": "Cc1nc2c(c(NC(C)C)n1)CCN(C1CCOCC1)CC2", "Target Or System": "Plasmodium berghei", "Value Unit": "%", "Observed Result": 36.4}
{"Compound": "N#Cc1ccccc1N1CC2(CCCCN2CC2CC2)CC1=O (stereo not given)", "Target Or System": "Plasmodium berghei", "Value Unit": "%", "Observed Result": 15.3}
{"Compound": "COc1ccc(CN2C[C@@H]3COC[C@H](N4CCN(C)CC4)[C@@H]3C2)cc1", "Target Or System": "Plasmodium berghei", "Value Unit": "%", "Observed Result": 40.4}
{"Compound": "CC(NC(=O)Nc1nccs1)C(=O)NC1CCCC1 (stereo not given)", "Target Or System": "Plasmodium berghei", "Value Unit": "%", "Observed Result": 40.2}
{"Compound": "CNC(=O)CN(C(=O)c1cc(C(C)C)no1)c1cccc(F)c1", "Target Or System": "Plasmodium berghei", "Value Unit": "%", "Observed Result": -10.5}
{"Compound": "CN(Cc1ccn[nH]1)C(=O)CCC(=O)NC1CCCC1", "Target Or System": "Plasmodium berghei", "Value Unit": "%", "Observed Result": 31.2}
{"Compound": "CC(C)c1nn(C)c(N(C)C)c1CNCc1cccnc1", "Target Or System": "Plasmodium berghei", "Value Unit": "%", "Observed Result": -3.48}
{"Compound": "CN(Cc1cccc(-n2cccn2)c1)c1cc(N2CCCC2)nc(N)n1", "Target Or System": "Plasmodium berghei", "Value Unit": "%", "Observed Result": 93.9}
{"Compound": "CNc1nccc(C2CCCCN2Cc2cnn3cccnc23)n1 (stereo not given)", "Target Or System": "Plasmodium berghei", "Value Unit": "%", "Observed Result": -7.66}
{"Compound": "Cc1nc(CN2C[C@@H]3COC[C@]3(COCC(=O)N(C)C)C2)cs1", "Target Or System": "Plasmodium berghei", "Value Unit": "%", "Observed Result": 43.1}
{"Compound": "Cc1cnc(NC(=O)c2csc(NCC(C)C)n2)s1", "Target Or System": "Plasmodium berghei", "Value Unit": "%", "Observed Result": 83.8}
{"Compound": "CN(Cc1cccc(-n2cccn2)c1)C(=O)c1ccnc(N)c1", "Target Or System": "Plasmodium berghei", "Value Unit": "%", "Observed Result": 21.2}
{"Compound": "CN1CCN([C@H]2COC[C@@H]3CN(Cc4cccnc4)C[C@@H]32)CC1", "Target Or System": "Plasmodium berghei", "Value Unit": "%", "Observed Result": 57.9}
{"Compound": "Cc1nn(C)c(N(C)C)c1CNCc1cccnc1", "Target Or System": "Plasmodium berghei", "Value Unit": "%", "Observed Result": 40.7}
{"Compound": "Cc1ncc(CN2CCOC(c3ccc(-c4cnn(C)c4)cn3)C2)s1 (stereo not given)", "Target Or System": "Plasmodium berghei", "Value Unit": "%", "Observed Result": -6.92}
{"Compound": "Cc1nc(Nc2cnccn2)cc(C2CCN(CCO)C2)n1 (stereo not given)", "Target Or System": "Plasmodium berghei", "Value Unit": "%", "Observed Result": 23.2}
{"Compound": "Cc1cccc(S(=O)(=O)N2CC[C@H]3CO[C@H](CN(C)C)[C@H]3C2)c1", "Target Or System": "Plasmodium berghei", "Value Unit": "%", "Observed Result": -1.55}
{"Compound": "COCCc1noc(CNC2CCCC(C)(C)C2)n1 (stereo not given)", "Target Or System": "Plasmodium berghei", "Value Unit": "%", "Observed Result": 20.2}
{"Compound": "Oc1cc(-c2cccs2)nc(C2CCCN(CC3=CCCOC3)C2)n1 (stereo not given)", "Target Or System": "Plasmodium berghei", "Value Unit": "%", "Observed Result": 23.9}
{"Compound": "O=C(NC[C@]12COC[C@H]1CN(CC1CCOCC1)C2)c1ccco1", "Target Or System": "Plasmodium berghei", "Value Unit": "%", "Observed Result": 3.11}
{"Compound": "O=C(C1CCOC1)N1CCC2(CCN(Cc3nccs3)CC2)CC1 (stereo not given)", "Target Or System": "Plasmodium berghei", "Value Unit": "%", "Observed Result": 52}
{"Compound": "O=C(Nc1ccc(-c2nnc[nH]2)cc1)C1CCN1Cc1ccccc1 (stereo not given)", "Target Or System": "Plasmodium berghei", "Value Unit": "%", "Observed Result": -17.3}
{"Compound": "CCOCCCNCc1cc2c(C)cc(C)cc2n2c(=O)n(C)nc12", "Target Or System": "Plasmodium berghei", "Value Unit": "%", "Observed Result": 51.5}
{"Compound": "Cc1nc(CN2C[C@@H]3CN(C(=O)c4cnccn4)C[C@@H]3C2)cs1", "Target Or System": "Plasmodium berghei", "Value Unit": "%", "Observed Result": -13.2}
{"Compound": "COc1ccc(CC(=O)N2CCC[C@@H](N)[C@@H]2c2ccccc2F)cc1", "Target Or System": "Plasmodium berghei", "Value Unit": "%", "Observed Result": 44.8}
{"Compound": "CCC(O)CNc1nccc(-c2ccc(C)nc2C)n1 (stereo not given)", "Target Or System": "Plasmodium berghei", "Value Unit": "%", "Observed Result": -8.9}
{"Compound": "Cc1nc(CN2CCN(C(C)c3nc(C(C)C)no3)CC2)oc1C (stereo not given)", "Target Or System": "Plasmodium berghei", "Value Unit": "%", "Observed Result": 6.7}
{"Compound": "Cc1cc(C(F)(F)F)nn1CCNC(=O)C(C)n1ccnc1C(C)C (stereo not given)", "Target Or System": "Plasmodium berghei", "Value Unit": "%", "Observed Result": 85.5}
{"Compound": "CN(C)c1nccnc1C1CCCN(c2cnccn2)C1 (stereo not given)", "Target Or System": "Plasmodium berghei", "Value Unit": "%", "Observed Result": 7.75}
{"Compound": "COc1ccc(CN2C[C@@H]3COC[C@@H](N4CCN(C)CC4)[C@@H]3C2)cc1", "Target Or System": "Plasmodium berghei", "Value Unit": "%", "Observed Result": 68.4}
{"Compound": "Cc1ncc(CN2CCOC(c3ccc(-c4cc[nH]n4)cn3)C2)s1 (stereo not given)", "Target Or System": "Plasmodium berghei", "Value Unit": "%", "Observed Result": 19.6}
{"Compound": "CC(NC(=O)c1cccs1)C(=O)NS(=O)(=O)c1ccc(C#N)cc1 (stereo not given)", "Target Or System": "Plasmodium berghei", "Value Unit": "%", "Observed Result": 42.1}
{"Compound": "O=C(C1CCOC1)N1CCC2(CCN(Cc3nccs3)C2)CC1 (stereo not given)", "Target Or System": "Plasmodium berghei", "Value Unit": "%", "Observed Result": 46.2}
{"Compound": "COc1ccc(CN2C[C@@H]3COC[C@@H](CC(=O)N4CCCC4)[C@@H]3C2)cc1", "Target Or System": "Plasmodium berghei", "Value Unit": "%", "Observed Result": -26.5}
{"Compound": "O=C(C1CCOCC1)N1CCC2(CCN(Cc3nccs3)CC2)CC1", "Target Or System": "Plasmodium berghei", "Value Unit": "%", "Observed Result": 18.3}
{"Compound": "Cc1cc(C)cc(CN2C[C@H]3COC[C@H](N4CCN(C)CC4)[C@H]3C2)c1", "Target Or System": "Plasmodium berghei", "Value Unit": "%", "Observed Result": 47.4}
{"Compound": "CN(Cc1ccc(-n2cccn2)cc1)c1nc(N)nc2c1CCNCC2", "Target Or System": "Plasmodium berghei", "Value Unit": "%", "Observed Result": 45}
{"Compound": "CN(Cc1ccc(-n2cccn2)cc1)c1cc(N)nc(N)n1", "Target Or System": "Plasmodium berghei", "Value Unit": "%", "Observed Result": 82.2}
{"Compound": "Cc1ncc(CN2CCOC(c3ccc(-c4ccccc4F)cn3)C2)s1 (stereo not given)", "Target Or System": "Plasmodium berghei", "Value Unit": "%", "Observed Result": 95.3}
{"Compound": "COC[C@]1(O)CCN(Cc2cnc(N(C)C)nc2)CC1(C)C", "Target Or System": "Plasmodium berghei", "Value Unit": "%", "Observed Result": -28.9}

Entry source: ChEMBL document CHEMBL4513216
